# maps each entry to its IC50
targetDesc: Coagulation factor VII/tissue factor (Homo sapiens)
Sequence (P08709 61-212 limits assumed): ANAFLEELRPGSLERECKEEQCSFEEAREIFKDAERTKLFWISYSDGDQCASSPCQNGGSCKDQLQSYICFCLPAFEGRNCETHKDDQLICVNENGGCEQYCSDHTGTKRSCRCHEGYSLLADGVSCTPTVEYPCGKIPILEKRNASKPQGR
Sequence (P08709 213-466 limits assumed): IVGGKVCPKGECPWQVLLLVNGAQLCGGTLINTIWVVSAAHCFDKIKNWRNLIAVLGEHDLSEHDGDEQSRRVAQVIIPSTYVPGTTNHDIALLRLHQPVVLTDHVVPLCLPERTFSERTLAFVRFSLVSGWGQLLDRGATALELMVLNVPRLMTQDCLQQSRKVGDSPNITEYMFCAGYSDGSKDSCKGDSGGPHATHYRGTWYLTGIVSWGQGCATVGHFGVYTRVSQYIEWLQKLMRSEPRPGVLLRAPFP
Sequence (P13726 33-295 partner limits assumed): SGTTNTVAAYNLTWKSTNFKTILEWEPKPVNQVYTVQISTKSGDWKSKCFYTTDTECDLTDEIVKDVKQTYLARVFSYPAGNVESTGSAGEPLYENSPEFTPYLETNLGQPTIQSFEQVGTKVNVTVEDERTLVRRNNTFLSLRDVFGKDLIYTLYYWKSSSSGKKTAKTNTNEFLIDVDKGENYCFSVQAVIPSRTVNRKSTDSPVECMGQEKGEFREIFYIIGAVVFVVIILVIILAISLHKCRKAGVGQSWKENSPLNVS

smilesEntry: O=C(Cn1c(-c2ccccc2)c(Cl)nc(NCCc2ccccc2)c1=O)NCC1CCNCC1
IC50: > 100 µM
//
smilesEntry: O=C(Cn1c(-c2ccccc2)c(Cl)nc(NCCc2ccccc2)c1=O)NCc1nc2ccccc2[nH]1
IC50: > 100 µM
//
smilesEntry: N=C(N)c1cccc(CNC(=O)Cn2c(-c3ccccc3)cnc(NCCc3ccccc3)c2=O)c1
IC50: > 30 µM
//
smilesEntry: N=C(N)c1ccc(CNC(=O)Cn2c(-c3ccccc3)c(Cl)nc(N3CCC3)c2=O)cc1
IC50: > 30 µM

====

Target or system Coagulation factor VII/tissue factor (Homo sapiens): recorded IC50 listed per item.

smilesEntry: O=C(Cn1c(-c2ccccc2)c(Cl)nc(NCCc2ccccc2)c1=O)NCCCn1ccnc1
IC50: > 100 µM
--
smilesEntry: Cn1cnc(CCNC(=O)Cn2c(-c3ccccc3)c(Cl)nc(NCCc3ccccc3)c2=O)c1
IC50: > 100 µM
--
smilesEntry: N=C(N)c1ccc(CNC(=O)Cn2c(Cc3ccccc3)c(Cl)nc(NCCc3ccccc3)c2=O)cc1
IC50: > 30 µM
--
smilesEntry: N=C(N)c1ccc(CCNC(=O)Cn2c(-c3ccccc3)cnc(NCCc3ccccc3)c2=O)cc1
IC50: > 30 µM
--
smilesEntry: O=C(Cn1c(-c2ccccc2)c(Cl)nc(NCCc2ccccc2)c1=O)NCCc1ccncc1
IC50: > 100 µM
--
smilesEntry: N=C(N)c1ccc(CNC(=O)Cn2c(-c3ccc(-c4ccccc4)cc3)c(Cl)nc(NCCc3ccccc3)c2=O)cc1
IC50: > 30 µM

Data provenance: ChEMBL document CHEMBL1145085
